// data source = patent US20220324969A1

target: CD33 (Sino Biological, Cat #12238-H08H) (UniProt P20138 18-259); experiment: BLI, IgG captured on anti-human Fc sensor, 50 nM CD33, pH 7.4 vs pH 5.4
Sequence (P20138 18-259 limits assumed): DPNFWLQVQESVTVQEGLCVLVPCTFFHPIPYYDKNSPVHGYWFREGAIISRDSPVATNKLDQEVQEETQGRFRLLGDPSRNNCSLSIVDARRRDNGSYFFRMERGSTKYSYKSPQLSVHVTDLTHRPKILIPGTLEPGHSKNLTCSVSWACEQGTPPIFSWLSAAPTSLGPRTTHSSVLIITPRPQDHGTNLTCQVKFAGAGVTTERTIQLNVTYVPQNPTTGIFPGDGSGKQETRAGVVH
Measured Parameter: binding result

In: Please look at this binder and report its binding result: MYT2628 (antibody, V domains shown, IgG; IMGN779 VL variant #12 (Q35H)) VH: QVQLQQPGAEVVKPGASVKMSCKASGYTFTSYYIHWIKQTPGQGLEWVGVIYPGNDDISYNQKFQGKATLTADKSSTTAYMQLSSLTSEDSAVYYCAREVRLRYFDVWGQGTTVTVSS VL: EIVLTQSPGSLAVSPGERVTMSCKSSQSVFFSSSHKNYLAWYQQIPGQSPRLLIYWASTRESGVPDRFTGSGSGTDFTLTISSVQPEDLAIYYCHQYLSSRTFGQGTKLEIK
Out: binds

In: Please look at this binder and report its binding result: MYT2634 (antibody, V domains shown, IgG; IMGN779 VL variant #18 (W56H)) VH: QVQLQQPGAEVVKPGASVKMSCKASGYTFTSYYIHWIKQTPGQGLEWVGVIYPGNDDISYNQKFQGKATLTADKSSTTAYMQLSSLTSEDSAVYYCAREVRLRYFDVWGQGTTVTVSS VL: EIVLTQSPGSLAVSPGERVTMSCKSSQSVFFSSSQKNYLAWYQQIPGQSPRLLIYHASTRESGVPDRFTGSGSGTDFTLTISSVQPEDLAIYYCHQYLSSRTFGQGTKLEIK
Out: binds

In: Please look at this binder and report its binding result: MYT2638 (antibody, V domains shown, IgG; IMGN779 VL variant #22 (R60H)) VH: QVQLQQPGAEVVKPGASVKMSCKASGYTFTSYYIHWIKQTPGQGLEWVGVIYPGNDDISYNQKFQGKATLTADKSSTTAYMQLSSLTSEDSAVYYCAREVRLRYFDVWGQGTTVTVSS VL: EIVLTQSPGSLAVSPGERVTMSCKSSQSVFFSSSQKNYLAWYQQIPGQSPRLLIYWASTHESGVPDRFTGSGSGTDFTLTISSVQPEDLAIYYCHQYLSSRTFGQGTKLEIK
Out: binds
